# testSystem: KCNQ 2/3 (Rattus norvegicus, UniProt O88943+O88944)
# Construct: endogenous in cells
# testDetails: rubidium (Rb+) efflux assay in NGF-differentiated PC-12 cells
# testContext: concentration for 50% of maximal Rb+ efflux, depolarization buffer (15 mM KCl), 10 min at room temperature
pEC50: −log10 of the molar value.
Please provide measured pEC50 for the entries that follow.

# query: pEC50 of entry Cc1ccc(N2CCc3ccccc3C2)cc1NC(=O)CC(C)(C)C
6.00 to 6.70

# query: pEC50 of entry CCc1ccc(NCc2ccc(F)cc2)c(CC)c1NC(=O)CCC1CCCC1
> 7.30

# query: pEC50 of entry Cc1ccc(NCc2ccc(F)cc2)cc1NC(=O)CC(C)(C)C
6.00 to 6.70

# query: pEC50 of entry CC(C)(C)CC(=O)Nc1cc(N2CCOCC2)c(F)cc1F
5.00 to 6.00

# query: pEC50 of entry Cc1ccc(N2CCOCC2)c(C)c1NC(=O)CC(C)(C)C
5.00 to 6.00

# query: pEC50 of entry Cc1ccc(NCc2ccc(C(F)(F)F)cc2)c(C)c1NC(=O)CC(C)(C)C
6.00 to 6.70

# query: pEC50 of entry COc1ccc(N2CCOCC2)c(C)c1NC(=O)CC(C)(C)C
5.00 to 6.00

# query: pEC50 of entry Cc1ccc(NCc2ccc(F)cc2)c(C)c1NC(=O)CCC1CCCC1
> 7.30

# query: pEC50 of entry Cc1ccc(NC(=O)CC(C)(C)C)cc1N1CCOCC1
5.00 to 6.00

# query: pEC50 of entry CCc1c(NCc2ccc(F)cc2)ccc(C)c1NC(=O)CC(C)(C)C
6.70 to 7.30

# query: pEC50 of entry CCc1ccc(NCc2ccc(F)cc2)c(C)c1NC(=O)CC(C)(C)C
6.70 to 7.30

# query: pEC50 of entry COc1ccc(NCc2ccc(F)cc2)c(C)c1NC(=O)CCC1CCCC1
6.70 to 7.30

# query: pEC50 of entry Cc1c(NC(=O)CC(C)(C)C)cccc1N1CCOCC1
< 5.00

# query: pEC50 of entry Cc1ccc(N2CCOCC2)cc1NC(=O)CC(C)(C)C
< 5.00

# query: pEC50 of entry Cc1ccc(NCc2ccc(C(F)(F)F)cc2)c(C)c1NC(=O)CCC1CCCC1
> 7.30

# query: pEC50 of entry Cc1c(N2CCOCC2)ccc(F)c1NC(=O)CC(C)(C)C
5.00 to 6.00

# query: pEC50 of entry Cc1c(NCc2ccc(F)cc2)cccc1NC(=O)CC(C)(C)C
6.70 to 7.30

# query: pEC50 of entry Cc1ccc(NCc2ccc(F)cc2)c(Cl)c1NC(=O)CC(C)(C)C
6.70 to 7.30

# query: pEC50 of entry CC(C)(C)CC(=O)Nc1ccc(F)c(N2CCOCC2)c1
< 5.00

# query: pEC50 of entry Cc1cc(Cl)c(N2CCOCC2)cc1NC(=O)CC(C)(C)C
5.00 to 6.00

# query: pEC50 of entry Cc1ccc(NCc2ccc(F)cc2)c(C)c1NC(=O)CC(C)(C)C
6.70 to 7.30
